Quick record of Ki values for UniProt Q5PPG3.
Sequence (Q5PPG3 whole entry): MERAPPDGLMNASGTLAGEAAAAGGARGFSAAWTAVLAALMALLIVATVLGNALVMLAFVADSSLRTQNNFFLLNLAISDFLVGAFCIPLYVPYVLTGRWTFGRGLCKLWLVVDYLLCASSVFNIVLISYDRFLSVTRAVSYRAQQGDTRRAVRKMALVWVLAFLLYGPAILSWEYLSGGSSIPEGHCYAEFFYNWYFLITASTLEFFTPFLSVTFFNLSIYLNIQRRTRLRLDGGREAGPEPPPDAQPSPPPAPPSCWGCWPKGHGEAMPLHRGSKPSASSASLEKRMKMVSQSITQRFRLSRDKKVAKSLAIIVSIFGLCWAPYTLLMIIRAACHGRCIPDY
Supply the numeric figure in nM, leaving out any unit text.

Write down the reported Ki of N[C@@H](CC1CCCCC1)C(=O)NCCc1cnc[nH]1 , test system: UniProt Q5PPG3.
31

Recorded Ki for N[C@@H](Cc1ccccc1)C(=O)NCCc1c[nH]cn1 with UniProt Q5PPG3, please?
104

Return Ki measured with UniProt Q5PPG3 given this compound: N[C@H](Cc1ccccc1)C(=O)NCCc1c[nH]cn1
2810

More entries:
Give recorded Ki with UniProt Q5PPG3 for the following compound: C(#Cc1c[nH]cn1)CCCC1CCCCC1
1030

// fetch UniProt Q5PPG3 Ki for C(#CCCC1CCCC1)CCc1c[nH]cn1
0.95

Hello, I am looking for reported Ki with UniProt Q5PPG3 for N[C@@H](CCc1ccccc1)C(=O)NCCc1c[nH]cn1 . Could you help?
11

State its Ki on UniProt Q5PPG3: CN[C@@H](Cc1ccccc1)C(=O)NCCc1c[nH]cn1
1590

Query Ki on UniProt Q5PPG3 for C(#CCCc1c[nH]cn1)CCCC1CCCCC1
3.4

# query: Ki | item N[C@H](C(=O)NCCc1c[nH]cn1)c1ccccc1 | system: UniProt Q5PPG3
630

Notebook entry, UniProt Q5PPG3 assay: Ki of C(=CCCc1cnc[nH]1)CCc1ccccc1 = ?
5.5
